settings: Day 13; G3-G9 groups; single IP dose; Mean±SEM
// reported Weight change rate, Day 13 per item
MEASURED_QUANTITY: Weight change rate, Day 13 (%)

1. CC(C)(C)OC(=O)Nc1ccn([C@@H]2O[C@H](COC(=O)Cn3cnc([N+](=O)[O-])c3)[C@@H](O)C2(F)F)c(=O)n1 7.65
2. CCCCOC(=O)Nc1nc(=O)n([C@@H]2O[C@H](CO)[C@@H](O)C2(F)F)cc1Br 7.77
3. O=C(Nc1ccn([C@@H]2O[C@H](CO)[C@@H](O)C2(F)F)c(=O)n1)OCc1ccc([N+](=O)[O-])cc1 7.84
4. O=C(Nc1nc(=O)n([C@@H]2O[C@H](CO)[C@@H](O)C2(F)F)cc1Br)OCc1ccccc1 5.62
5. O=C(Nc1ccn([C@@H]2O[C@H](CO)[C@@H](O)C2(F)F)c(=O)n1)OCc1ccccc1 7.64
6. CC(C)(C)OC(=O)Nc1ccn([C@@H]2O[C@H](CO)[C@@H](O)C2(F)F)c(=O)n1 6.20
